- SYSTEM_NAME: IDH1 wt/IDH1 R132H heterodimer (Homo sapiens (Human), UniProt O75874, R132H)
- Sequence (O75874 whole entry R132H): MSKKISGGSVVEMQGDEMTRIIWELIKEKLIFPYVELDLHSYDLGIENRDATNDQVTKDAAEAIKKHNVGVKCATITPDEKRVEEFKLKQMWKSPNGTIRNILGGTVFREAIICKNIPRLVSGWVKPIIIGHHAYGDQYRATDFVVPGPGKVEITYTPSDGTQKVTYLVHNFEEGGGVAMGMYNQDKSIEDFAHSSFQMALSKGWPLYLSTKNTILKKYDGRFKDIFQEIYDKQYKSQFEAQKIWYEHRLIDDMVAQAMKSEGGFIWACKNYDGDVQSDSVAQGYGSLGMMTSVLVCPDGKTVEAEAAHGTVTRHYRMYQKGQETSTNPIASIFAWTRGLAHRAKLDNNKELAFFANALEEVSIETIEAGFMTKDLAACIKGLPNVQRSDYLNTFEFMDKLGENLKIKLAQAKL
- Sequence (O75874 whole entry, stated change not applied): as the sequence (O75874 whole entry R132H) above, with H132R counted along it
- METHOD_SUMMARY: IDH1 wt/IDH1 R132H heterodimer enzymatic assay, NADPH depletion with diaphorase/resazurin readout
- Format: biochemical
- TEST_CONDITIONS: 300 μM NADP (saturated)
- Protocol: The following describes the experimental procedures that can be used to obtain data on columns 2 and 4 of Table 4 and column 2 of Table 5. In the primary reaction, the reduction of α-KG acid to 2-HG is accompanied by a concomitant oxidation of NADPH to NADP. The amount of NADPH remaining at the end of the reaction time is measured in a secondary diaphorase/resazurin reaction in which the NADPH is consumed in a 1:1 molar ratio with the conversion of resazurin to the highly fluorescent resorufin. […]
QUANTITY_KIND: IC50

Request: Recall the reported IC50 of `FC1(F)CCC(Nc2nc(NC3CCC(F)(F)CC3)nc(-c3nc(C(F)(F)F)cs3)n2)CC1` when tested on IDH1 wt/IDH1 R132H heterodimer (Homo sapiens (Human), UniProt O75874, R132H).
Response: 50 to 100 nM
